Assignment: determine reported pKi for the given molecules.
biological target: PCSK9 (Homo sapiens); construct: Biotinylated PCSK9 was obtained commercially; purchased; test: PCSK9 Alexa FRET Ultra TR-FRET assay (displacement of AlexaFluor647 tagged cyclic peptide); format: binding; conditions: Ki Ultra, 0.5 nM biotinylated PCSK9, 960 nM AF cyclic peptide; Ki calculated from IC50 and KD of AF peptide
One number for each entry, as −log10 of the molar value.

Before answering, review these 2 worked examples.
[[record]]
molecule = "COc1ccc(C[C@@H]2NC(=O)[C@H]([C@@H](C)O)NC(=O)[C@@H]3[C@@H]4CCN3C(=O)[C@@H]3Cc5cn(c6ccc(F)cc56)CCCCOCc5cc(ccc5CNC(=O)CCC(=O)N[C@@H](C)C(=O)N[C@H](CNC(=O)CCCCC[N+](C)(C)C)C(=O)N[C@@H](Cc5cccc(c5)CNC(=O)CO4)C(=O)N3)CCNC(=O)[C@]3(C)CCCN3C2=O)cc1 [Ex-49]"
assay_value = 11.38

[[record]]
molecule = "COc1ccc(C[C@@H]2NC(=O)[C@H]([C@@H](C)O)NC(=O)[C@@H]3[C@@H]4CCN3C(=O)[C@@H]3Cc5cn(c6ccc(F)cc56)CCCCCCN(Cc5ccc(cc5)CCNC(=O)[C@]5(C)CCCN5C2=O)C(=O)CCC(=O)N[C@@H](C)C(=O)N[C@H](CNC(=O)CCOCCCCC[N+](C)(C)C)C(=O)N[C@@H](Cc2cccc(c2)CNC(=O)CO4)C(=O)N3)cc1 [Ex-59]"
assay_value = 11.30


Below: the item to evaluate.
**Query** # return pKi for COc1ccc(C[C@@H]2NC(=O)[C@H]([C@@H](C)O)NC(=O)[C@@H]3[C@@H]4CCN3C(=O)[C@@H]3Cc5cn(c6ccc(F)cc56)CCCCCCN(Cc5ccc(cc5)CCNC(=O)[C@]5(C)CCCN5C2=O)C(=O)CCC(=O)N[C@@H](C)C(=O)N[C@H](CNC(=O)CCCCC[N+](C)(C)C)C(=O)N[C@@H](Cc2cccc(c2)CNC(=O)CO4)C(=O)N3)cc1 [Ex-25] , test system: PCSK9 (Homo sapiens)
**Result** 11.33

----------
biological target: PCSK9 (Homo sapiens, UniProt Q8NBP7); construct: Biotinylated PCSK9 was obtained commercially; purchased; assay: PCSK9 Alexa FRET Standard TR-FRET assay (displacement of AlexaFluor647 tagged cyclic peptide Reagent A); type: binding
Sequence (Q8NBP7 153-692): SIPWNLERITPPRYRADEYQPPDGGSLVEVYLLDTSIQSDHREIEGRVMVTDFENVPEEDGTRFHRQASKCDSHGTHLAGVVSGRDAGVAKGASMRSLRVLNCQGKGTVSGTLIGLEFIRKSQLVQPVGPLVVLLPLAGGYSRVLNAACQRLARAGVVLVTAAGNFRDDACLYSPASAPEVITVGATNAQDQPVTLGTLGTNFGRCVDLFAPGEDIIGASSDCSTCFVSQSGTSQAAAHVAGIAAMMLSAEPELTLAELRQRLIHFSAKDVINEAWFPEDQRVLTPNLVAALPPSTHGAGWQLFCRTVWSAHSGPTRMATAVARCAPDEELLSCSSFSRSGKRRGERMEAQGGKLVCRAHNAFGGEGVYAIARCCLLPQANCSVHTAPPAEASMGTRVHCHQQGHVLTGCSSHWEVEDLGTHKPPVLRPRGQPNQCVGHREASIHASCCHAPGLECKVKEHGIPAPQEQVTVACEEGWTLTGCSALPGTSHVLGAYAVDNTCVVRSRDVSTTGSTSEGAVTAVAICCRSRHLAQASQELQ
MEASURED_METRIC: Ki

[[record]]
test_smiles = "COc1ccc(C[C@@H]2NC(=O)[C@H]([C@@H](C)O)NC(=O)[C@@H]3[C@@H]4CCN3C(=O)[C@@H]3Cc5cn(c6ccc(F)cc56)C/C=C/CCCN(Cc5ccc(cc5)CCNC(=O)[C@]5(C)CCCN5C2=O)C(=O)CCC(=O)N[C@@H](C)C(=O)N[C@H](CN)C(=O)N[C@@H](Cc2cccc(c2)CNC(=O)CO4)C(=O)N3)cc1"
measured_metric = "Ki"
assay_value = "< 1.26 nM"

[[record]]
test_smiles = "COc1ccc(C[C@@H]2NC(=O)[C@H]([C@@H](C)O)NC(=O)[C@@H]3[C@@H]4CCN3C(=O)[C@@H]3Cc5cn(c6ccc(F)cc56)CCCCOc5cc(ccc5CNC(=O)CCC(=O)N[C@@H](C)C(=O)N[C@H](CN)C(=O)N[C@@H](Cc5cccc(c5)CNC(=O)CO4)C(=O)N3)CCNC(=O)[C@]3(C)CCCN3C2=O)cc1"
measured_metric = "Ki"
assay_value = "< 1.26 nM"


API: the following record is the query input.
**Query** Give Ki for the following molecule: `COc1ccc(C[C@@H]2NC(=O)[C@H]([C@@H](C)O)NC(=O)[C@@H]3[C@@H]4CCN3C(=O)[C@@H]3Cc5cn(c6ccc(F)cc56)CCCCCCN(Cc5ccc(cc5)CCNC(=O)[C@]5(C)CCCN5C2=O)C(=O)CCC(=O)N[C@@H](C)C(=O)N[C@H](CNC(=O)Cc2cccc(OCCC[N+](C)(C)C)c2)C(=O)N[C@@H](Cc2cccc(c2)CNC(=O)CO4)C(=O)N3)cc1`
**Result** < 1.26 nM

----------
target: PCSK9 (Homo sapiens, UniProt Q8NBP7); construct: Biotinylated PCSK9 was obtained commercially; purchased; experiment: PCSK9 Alexa FRET Ultra TR-FRET assay (displacement of AlexaFluor647 tagged cyclic peptide); type: binding; details: Ki Ultra, 0.5 nM biotinylated PCSK9, 960 nM AF cyclic peptide; Ki calculated from IC50 and KD of AF peptide
Please go through the items and note down their Ki.

[[record]]
test_smiles = "COCCC[N+](C)(C)CCCCCC(=O)NC[C@H]1NC(=O)[C@H](C)NC(=O)CCC(=O)N2CCCCCCn3cc(c4cc(F)ccc43)C[C@@H]3NC(=O)[C@H](Cc4cccc(c4)CNC(=O)CO[C@H]4CCN(C3=O)[C@@H]4C(=O)N[C@@H]([C@@H](C)O)C(=O)N[C@@H](Cc3ccc(OC)cc3)C(=O)N3CCC[C@@]3(C)C(=O)NCCc3ccc(cc3)C2)NC1=O"
target_entity = "PCSK9 (Homo sapiens, UniProt Q8NBP7)"
assay_value = "1.62 pM"


Batch of 2 compounds: report Ki for each.
1. COc1ccc(C[C@@H]2NC(=O)[C@H]([C@@H](C)O)NC(=O)[C@@H]3[C@@H]4CCN3C(=O)[C@@H]3Cc5cn(c6ccc(F)cc56)CCCCCCN(Cc5ccc(cc5)CCNC(=O)[C@]5(C)CCCN5C2=O)C(=O)CCC(=O)N[C@@H](C)C(=O)N[C@H](CNC(=O)Cc2cccc(OCCC[N+](C)(C)C)c2)C(=O)N[C@@H](Cc2cccc(c2)CNC(=O)CO4)C(=O)N3)cc1
2. COc1ccc(C[C@@H]2NC(=O)[C@H]([C@@H](C)O)NC(=O)[C@@H]3C4CCN3C(=O)[C@@H]3Cc5cn(c6ccc(F)cc56)CCCCC[C@@H](NC(=O)CCC(=O)N[C@@H](C)C(=O)N[C@H](CNC(=O)CCOCCOCC[N+](C)(C)C)C(=O)N[C@@H](Cc5cccc(c5)CNC(=O)CO4)C(=O)N3)c3ccc(cc3)CCNC(=O)[C@]3(C)CCCN3C2=O)cc1

**Result**
4.81 pM
15.4 pM

----------
biological target: PCSK9 (Homo sapiens, UniProt Q8NBP7); construct: Biotinylated PCSK9 was obtained commercially; purchased; experiment: PCSK9 Alexa FRET Ultra TR-FRET assay (displacement of AlexaFluor647 tagged cyclic peptide); type: binding; details: 0.5 nM biotinylated PCSK9, 960 nM AF cyclic peptide; Ki calculated from IC50 and KD of AF peptide; read-out: Ki Ultra
Exercise: state measured Ki for each of the compounds provided.

For orientation, consider the following solved cases.
[[record]]
compound = "COc1ccc(C[C@@H]2NC(=O)[C@H]([C@@H](C)O)NC(=O)[C@@H]3[C@@H]4CCN3C(=O)[C@@H]3Cc5cn(c6ccc(F)cc56)CCCCCCN(Cc5ccc(cc5)CCNC(=O)[C@]5(C)CCCN5C2=O)C(=O)CCC(=O)N[C@@H](CNC(=O)CCOCCOCC[N+](C)(C)C)C(=O)N[C@H](C)C(=O)N[C@@H](Cc2cccc(c2)CNC(=O)CO4)C(=O)N3)cc1 [Ex-22]"
assay_value = "0.0152 nM"

[[record]]
compound = "COc1ccc(C[C@@H]2NC(=O)[C@H]([C@@H](C)O)NC(=O)[C@@H]3[C@@H]4CCN3C(=O)[C@@H]3Cc5cn(c6ccc(F)cc56)C/C=C/CCCN(Cc5ccc(cc5)CCNC(=O)[C@]5(C)CCCN5C2=O)C(=O)CCC(=O)N[C@H]2CN(C(=O)CCOCCOCC[N+](C)(C)C)CCCCC(=O)NC[C@@H](NC2=O)C(=O)N[C@@H](Cc2cccc(c2)CNC(=O)CO4)C(=O)N3)cc1 [Ex-07]"
assay_value = "0.0675 nM"


**Query** Look up and report measured Ki for this entry: COc1ccc(C[C@@H]2NC(=O)[C@H]([C@@H](C)O)NC(=O)[C@@H]3[C@@H]4CCN3C(=O)[C@@H]3Cc5cn(c6ccc(F)cc56)C/C=C\CCCN(Cc5ccc(cc5)CCNC(=O)[C@]5(C)CCCN5C2=O)C(=O)CCC(=O)N[C@@H](CNC(=O)CCOCCOCC[N+](C)(C)C)C(=O)N[C@H](C)C(=O)N[C@@H](Cc2cccc(c2)CNC(=O)CO4)C(=O)N3)cc1 [Ex-04]
**Result** 0.00471 nM

----------
biological target: PCSK9 (Homo sapiens, UniProt Q8NBP7); construct: Biotinylated PCSK9 was obtained commercially; purchased; test: PCSK9 Alexa FRET Plus TR-FRET assay (displacement of AlexaFluor647 tagged cyclic peptide Reagent B); format: binding; conditions: 0.5 nM biotinylated PCSK9, 960 nM AF cyclic peptide Reagent B; Ki calculated from IC50 and KD of AF peptide; read-out: Ki Plus
Would you kindly list pKi for each of these compounds?
Answers are plain numbers, as −log10 of the molar value.

[[record]]
test_smiles = "COc1ccc(C[C@@H]2NC(=O)[C@H]([C@@H](C)O)NC(=O)[C@@H]3[C@@H]4CCN3C(=O)[C@@H]3Cc5cn(c6ccc(F)cc56)CCCCCCN(Cc5ccc(cc5)CCNC(=O)[C@]5(C)CCCN5C2=O)C(=O)CCC(=O)N[C@@H](C)C(=O)N[C@H](CNC(=O)CCCCC[N+](C)(C)C)C(=O)N[C@@H](Cc2cccc(c2)CNC(=O)CO4)C(=O)N3)cc1"
assay_value = 10.95

[[record]]
test_smiles = "COc1ccc(C[C@@H]2NC(=O)[C@H]([C@@H](C)O)NC(=O)[C@@H]3[C@@H]4CCN3C(=O)[C@@H]3Cc5cn(c6ccc(F)cc56)Cc5cn(nn5)C[C@@H](NC(=O)CCC(=O)N[C@@H](CNC(=O)CCOCCOCC[N+](C)(C)C)C(=O)N[C@H](C)C(=O)N[C@@H](Cc5cccc(c5)CNC(=O)CO4)C(=O)N3)c3ccc(cc3)CCNC(=O)[C@]3(C)CCCN3C2=O)cc1"
assay_value = 10.36

[[record]]
test_smiles = "COc1ccc(C[C@@H]2NC(=O)[C@H]([C@@H](C)O)NC(=O)[C@@H]3[C@@H]4CCN3C(=O)[C@@H]3Cc5cn(c6ccc(F)cc56)C/C=C/CN(Cc5ccc(cc5)CCNC(=O)[C@]5(C)CCCN5C2=O)C(=O)CCC(=O)N[C@@H](C)C(=O)N[C@H](CNC(=O)CCOCCOCC[N+](C)(C)C)C(=O)N[C@@H](Cc2cccc(c2)CNC(=O)CO4)C(=O)N3)cc1"
assay_value = 11.01

[[record]]
test_smiles = "COc1ccc(C[C@@H]2NC(=O)[C@H]([C@@H](C)O)NC(=O)[C@@H]3[C@@H]4CCN3C(=O)[C@@H]3Cc5cn(c6ccc(F)cc56)Cc5cn(nn5)CCN(Cc5ccc(cc5)CCNC(=O)[C@]5(C)CCCN5C2=O)C(=O)CCC(=O)N[C@@H](C)C(=O)N[C@H](CNC(=O)CCOCCOCC[N+](C)(C)C)C(=O)N[C@@H](Cc2cccc(c2)CNC(=O)CO4)C(=O)N3)cc1"
assay_value = 10.79

[[record]]
test_smiles = "COc1ccc(C[C@@H]2NC(=O)[C@H]([C@@H](C)O)NC(=O)[C@@H]3[C@@H]4CCN3C(=O)[C@@H]3Cc5cn(c6ccc(F)cc56)Cc5cn(nn5)CCN(Cc5ccc(cc5)CCNC(=O)[C@]5(C)CCCN5C2=O)C(=O)CCCC(=O)N[C@@H](CNC(=O)CCOCCOCC[N+](C)(C)C)C(=O)N[C@H](C)C(=O)N[C@@H](Cc2cccc(c2)CNC(=O)CO4)C(=O)N3)cc1"
assay_value = 9.99

[[record]]
test_smiles = "COc1ccc(C[C@@H]2NC(=O)[C@H]([C@@H](C)O)NC(=O)[C@@H]3[C@@H]4CCN3C(=O)[C@@H]3Cc5cn(c6ccc(F)cc56)C/C=C/CCCN(Cc5ccc(cc5)CCNC(=O)[C@]5(C)CCCN5C2=O)C(=O)CCC(=O)N[C@@H](C)C(=O)N[C@H](CNC(=O)CCCCC[N+](C)(C)C)C(=O)N[C@@H](Cc2cccc(c2)CNC(=O)CO4)C(=O)N3)cc1"
assay_value = 11.25


**Query** Note pKi for the compound shown: `COc1ccc(C[C@@H]2NC(=O)[C@H]([C@@H](C)O)NC(=O)[C@@H]3[C@@H]4CCN3C(=O)[C@@H]3Cc5cn(c6ccc(F)cc56)CCCCCCN(Cc5ccc(cc5)CCNC(=O)[C@]5(C)CCCN5C2=O)C(=O)CCCCC(=O)N[C@H](CNC(=O)CCOCCOCC[N+](C)(C)C)C(=O)N[C@@H](Cc2cccc(c2)CNC(=O)CO4)C(=O)N3)cc1`
**Result** 10.89
